# TARGET DESC: xanthine oxidase (Bos taurus, UniProt P80457)
# Construct: purchased Sigma Chemical Company, St. Louis, Mo; host or cells: milk (grade III, chromatographically purified)
# Sequence (P80457 whole entry): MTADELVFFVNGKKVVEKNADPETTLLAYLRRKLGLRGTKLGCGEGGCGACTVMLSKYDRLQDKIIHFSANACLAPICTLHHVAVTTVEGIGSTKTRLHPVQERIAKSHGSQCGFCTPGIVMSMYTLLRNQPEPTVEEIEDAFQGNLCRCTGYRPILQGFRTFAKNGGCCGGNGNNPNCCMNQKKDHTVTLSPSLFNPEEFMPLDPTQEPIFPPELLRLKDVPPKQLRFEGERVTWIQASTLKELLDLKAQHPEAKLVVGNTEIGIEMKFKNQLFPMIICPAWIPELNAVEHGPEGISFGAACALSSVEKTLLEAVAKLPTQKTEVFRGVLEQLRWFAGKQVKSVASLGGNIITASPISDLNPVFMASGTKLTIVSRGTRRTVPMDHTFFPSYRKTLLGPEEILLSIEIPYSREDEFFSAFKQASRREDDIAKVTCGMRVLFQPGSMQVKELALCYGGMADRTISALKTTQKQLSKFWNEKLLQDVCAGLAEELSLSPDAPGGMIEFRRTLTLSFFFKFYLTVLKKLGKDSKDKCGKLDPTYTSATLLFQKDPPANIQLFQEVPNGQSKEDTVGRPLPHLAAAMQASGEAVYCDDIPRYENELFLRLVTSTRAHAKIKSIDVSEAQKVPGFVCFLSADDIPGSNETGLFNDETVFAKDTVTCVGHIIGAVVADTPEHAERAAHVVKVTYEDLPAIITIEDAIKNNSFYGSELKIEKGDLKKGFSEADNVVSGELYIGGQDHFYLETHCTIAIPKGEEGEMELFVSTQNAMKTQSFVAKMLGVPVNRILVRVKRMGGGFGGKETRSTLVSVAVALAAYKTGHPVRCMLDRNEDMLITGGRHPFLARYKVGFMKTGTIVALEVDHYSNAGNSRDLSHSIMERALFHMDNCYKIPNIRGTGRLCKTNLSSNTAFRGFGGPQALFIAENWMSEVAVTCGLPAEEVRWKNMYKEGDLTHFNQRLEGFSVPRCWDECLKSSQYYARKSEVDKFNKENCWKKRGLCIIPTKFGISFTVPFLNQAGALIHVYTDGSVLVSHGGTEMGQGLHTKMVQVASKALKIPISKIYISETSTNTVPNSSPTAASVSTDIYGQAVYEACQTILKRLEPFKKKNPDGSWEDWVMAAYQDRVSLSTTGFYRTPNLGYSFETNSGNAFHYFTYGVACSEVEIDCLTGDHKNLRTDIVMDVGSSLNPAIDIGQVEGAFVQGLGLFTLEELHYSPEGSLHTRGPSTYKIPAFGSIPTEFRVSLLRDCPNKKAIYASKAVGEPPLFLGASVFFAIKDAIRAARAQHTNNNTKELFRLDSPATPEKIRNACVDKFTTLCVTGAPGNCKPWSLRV
# ASSAY INFO: in vitro xanthine oxidase assay (rate of uric acid formation from xanthine)
# Format: biochemical
# CONDITION CONTEXT: milk xanthine oxidase 0.01 units, 0.05 micromoles xanthine in 1 ml, pH 7.4, room temperature, 292 nm; read-out: I50 (concentration of drug which inhibits 50% of the oxidation of xanthine to uric acid by the xanthine oxidase preparation) (converted)
ENDPOINT LABEL: IC50 (nM)
Please give a number only; it is taken to be in nM.

Nc1c(-c2ccc(Br)cc2)nsc1C(=O)O
2760
COc1cc(OC)cc(-c2nsc(C(=O)O)c2N)c1
89.2
Nc1c(-c2cccc(C(F)(F)F)c2)nsc1C(=O)O
76.3
Nc1c(-c2cccs2)nsc1C(=O)O
3310
O=C(O)c1snc(-c2ccccc2)c1Cl
225

Sure, the documented IC50 for O=C(O)c1cc(-c2cccc(Cl)c2)ns1 is 334

Sure, the documented IC50 for O=C(O)c1cc(-c2cccc(C(F)(F)F)c2)ns1 is 54.9
